- TEST: In vitro stability of MRS2365 in human whole blood
- Assay type: in vitro ADME
- COND: EDTA-treated human whole blood, read-out: estimated half-life
READOUT_TYPE: half-life at 1 μM

-- ask Need half-life at 1 μM of CSc1nc(N)c2ncn([C@H]3[C@H](O)[C@H](O)[C@]4(COP(=O)(O)OP(=O)(O)O)C[C@H]34)c2n1 [MRS2365] , thanks.
-- reply > 4 h

---

- TEST: Pharmacokinetics of MRS4322 following intravenous administration to neonatal pigs
- Type: in vivo
- COND: female, pig, plasma, iv, 0.2 mg/kg, MRS4322 0.2 mg/kg IV, 6 h, mean, read-out: Plasma Concentration Mean
READOUT_TYPE: concentration at 6 h (ng/mL)
Numbers only, in ng/mL.

-- ask Need concentration at 6 h of CSc1nc(N)c2ncn([C@H]3[C@H](O)[C@H](O)[C@]4(CO)C[C@H]34)c2n1 , thanks.
-- reply 15.1

---

- TEST: Pharmacokinetics of MRS4322 following intravenous administration to neonatal pigs
- Type: in vivo
- COND: female, pig, brain hippocampus, iv, 0.2 mg/kg, Brain Hippocampus, MRS4322 0.2 mg/kg IV, 6 h, mean, read-out: Brain Concentration Mean
READOUT_TYPE: concentration at 6 h (ng/mL)
Numbers only, in ng/mL.

-- ask Need concentration at 6 h of CSc1nc(N)c2ncn([C@H]3[C@H](O)[C@H](O)[C@]4(CO)C[C@H]34)c2n1 [MRS4322] , thanks.
-- reply 5.47

---

- TEST: Pharmacokinetics of MRS4322 following intravenous administration to neonatal pigs
- Assay type: in vivo
- COND: female, pig, plasma, iv, 0.2 mg/kg, MRS4322 0.2 mg/kg IV, 2 h, mean
READOUT_TYPE: concentration at 2 h (ng/mL)
Numbers only, in ng/mL.

-- ask Need concentration at 2 h of CSc1nc(N)c2ncn([C@H]3[C@H](O)[C@H](O)[C@]4(CO)C[C@H]34)c2n1 , thanks.
-- reply 30.9

---

- TEST: Pharmacokinetics of MRS4322 following intravenous administration to neonatal pigs
- Assay type: in vivo
- COND: female, pig, plasma, iv, 0.2 mg/kg, MRS4322 0.2 mg/kg IV, 0.5 h, individual subjects, read-out: Plasma Concentration by Subject
READOUT_TYPE: concentration at 0.5 h
Give the figure together with its unit, number first.

-- ask Need concentration at 0.5 h of CSc1nc(N)c2ncn([C@H]3[C@H](O)[C@H](O)[C@]4(CO)C[C@H]34)c2n1 , thanks.
-- reply 85.3 ng/mL

---

- TEST: Pharmacokinetics of MRS4322 following intravenous administration to neonatal pigs
- Assay type: in vivo
- COND: female, pig, plasma, iv, 0.2 mg/kg, plasma, MRS4322 0.2 mg/kg IV, mean, read-out: Cmax Mean
READOUT_TYPE: Cmax (ng/mL)
One number for each entry, in ng/mL.

-- ask Need Cmax of CSc1nc(N)c2ncn([C@H]3[C@H](O)[C@H](O)[C@]4(CO)C[C@H]34)c2n1 [MRS4322] , thanks.
-- reply 139

---

- TEST: Pharmacokinetics of MRS4322 following intravenous administration to neonatal pigs
- Assay type: in vivo
- COND: female, pig, plasma, iv, 0.2 mg/kg, MRS4322 0.2 mg/kg IV, 1 h, individual subjects, read-out: Plasma Concentration by Subject
READOUT_TYPE: concentration at 1 h (ng/mL)
Numbers only, in ng/mL.

-- ask Need concentration at 1 h of CSc1nc(N)c2ncn([C@H]3[C@H](O)[C@H](O)[C@]4(CO)C[C@H]34)c2n1 , thanks.
-- reply 58.9

---

- TEST: Pharmacokinetics of MRS4322 following intravenous administration to neonatal pigs
- Format: in vivo
- COND: female, pig, plasma, MRS4322 0.2 mg/kg IV, mean, read-out: Tmax Mean
- Description: Animals. Four-week old female neonatal pigs weighing approximately 7.5 Kg were used for this study, supplied by the Department of Bioengineering, University of Pennsylvania (Philadelphia, PA). […] For bioanalysis of brain concentrations of MRS4322, brain samples were homogenized in ice-cold phosphate-buffered saline in a 4× dilution. Aliquots of the resulting diluted brain homogenate were treated with acetonitrile and analyzed by LC-MS/MS.
READOUT_TYPE: Tmax
Give the figure together with its unit, number first.

-- ask Need Tmax of CSc1nc(N)c2ncn([C@H]3[C@H](O)[C@H](O)[C@]4(CO)C[C@H]34)c2n1 , thanks.
-- reply 15 min

---

- TEST: Pharmacokinetics of MRS4322 following intravenous administration to neonatal pigs
- Type: in vivo
- COND: female, pig, plasma, iv, 0.2 mg/kg, MRS4322 0.2 mg/kg IV, 1 h, mean, read-out: Plasma Concentration Mean
READOUT_TYPE: concentration at 1 h
Give the figure together with its unit, number first.

-- ask Need concentration at 1 h of CSc1nc(N)c2ncn([C@H]3[C@H](O)[C@H](O)[C@]4(CO)C[C@H]34)c2n1 [MRS4322] , thanks.
-- reply 0.0578 µg/mL

---

- TEST: Pharmacokinetics of MRS4322 following intravenous administration to neonatal pigs
- Type: in vivo
- COND: female, pig, plasma, iv, 0.2 mg/kg, plasma, MRS4322 0.2 mg/kg IV, individual animals, read-out: Vz
READOUT_TYPE: Vd
Give the figure together with its unit, number first.

-- ask Need Vd of CSc1nc(N)c2ncn([C@H]3[C@H](O)[C@H](O)[C@]4(CO)C[C@H]34)c2n1 [MRS4322] , thanks.
-- reply 4.04 L/kg

---

- TEST: Pharmacokinetics of MRS4322 following intravenous administration to neonatal pigs
- Type: in vivo
- COND: female, pig, plasma, iv, 0.2 mg/kg, MRS4322 0.2 mg/kg IV, 4 h, individual subjects, read-out: Plasma Concentration by Subject
READOUT_TYPE: concentration at 4 h (ng/mL)
One number for each entry, in ng/mL.

-- ask Need concentration at 4 h of CSc1nc(N)c2ncn([C@H]3[C@H](O)[C@H](O)[C@]4(CO)C[C@H]34)c2n1 [MRS4322] , thanks.
-- reply 23.3

---

- TEST: Pharmacokinetics of MRS4322 following intravenous administration to neonatal pigs
- Format: in vivo
- COND: female, pig, plasma, iv, 0.2 mg/kg, plasma, MRS4322 0.2 mg/kg IV, individual animals, read-out: C0
READOUT_TYPE: C0 (ng/mL)
Numbers only, in ng/mL.

-- ask Need C0 of CSc1nc(N)c2ncn([C@H]3[C@H](O)[C@H](O)[C@]4(CO)C[C@H]34)c2n1 , thanks.
-- reply 207

---

- TEST: Pharmacokinetics of MRS4322 following intravenous administration to neonatal pigs
- Format: in vivo
- COND: female, pig, cerebrospinal fluid, iv, 0.2 mg/kg, CSF, MRS4322 0.2 mg/kg IV, 6 h, mean, read-out: Cerebro-Spinal Fluid Concentration Mean
READOUT_TYPE: concentration at 6 h (ng/mL)
Give bare numbers, in ng/mL.

-- ask Need concentration at 6 h of CSc1nc(N)c2ncn([C@H]3[C@H](O)[C@H](O)[C@]4(CO)C[C@H]34)c2n1 , thanks.
-- reply 1.39

---

- TEST: Pharmacokinetics of MRS4322 following intravenous administration to neonatal pigs
- Format: in vivo
- COND: female, pig, plasma, iv, 0.2 mg/kg, plasma, MRS4322 0.2 mg/kg IV, mean, read-out: AUCINF Mean
READOUT_TYPE: AUC(0-inf)

-- ask Need AUC(0-inf) of CSc1nc(N)c2ncn([C@H]3[C@H](O)[C@H](O)[C@]4(CO)C[C@H]34)c2n1 , thanks.
-- reply 326 ng·h/mL

---

- TEST: Pharmacokinetics of MRS4322 following intravenous administration to neonatal pigs
- Type: in vivo
- COND: female, pig, brain hippocampus, iv, 0.2 mg/kg, Brain Hippocampus, MRS4322 0.2 mg/kg IV, 6 h, individual subjects, read-out: Brain Concentration by Subject
READOUT_TYPE: concentration at 6 h (ng/mL)
Numbers only, in ng/mL.

-- ask Need concentration at 6 h of CSc1nc(N)c2ncn([C@H]3[C@H](O)[C@H](O)[C@]4(CO)C[C@H]34)c2n1 , thanks.
-- reply 6.47

---

- TEST: Pharmacokinetics of MRS4322 following intravenous administration to neonatal pigs
- Assay type: in vivo
- COND: female, pig, brain extracellular fluid, iv, 0.2 mg/kg, brain ECF, MRS4322 0.2 mg/kg IV, 1 h, mean, read-out: Extracellular Fluid Concentration Mean
- Method: Animals. Four-week old female neonatal pigs weighing approximately 7.5 Kg were used for this study, supplied by the Department of Bioengineering, University of Pennsylvania (Philadelphia, PA). […] For bioanalysis of brain concentrations of MRS4322, brain samples were homogenized in ice-cold phosphate-buffered saline in a 4× dilution. Aliquots of the resulting diluted brain homogenate were treated with acetonitrile and analyzed by LC-MS/MS.
READOUT_TYPE: concentration at 1 h (ng/mL)
One number for each entry, in ng/mL.

-- ask Need concentration at 1 h of CSc1nc(N)c2ncn([C@H]3[C@H](O)[C@H](O)[C@]4(CO)C[C@H]34)c2n1 , thanks.
-- reply 1.3

These measurements were taken from patent US12239654B2.
